Data provenance: ChEMBL document CHEMBL4308864

- Tested on: OVCAR-8
- experiment description: Growth inhibition of human OVCAR8 cells assessed as cell growth at 10^-5 M incubated for 48 hrs by sulforhodamine B assay relative to control
- Type: functional
- recorded conditions: OVCAR-8, 48 h, read-out: Activity
assay readout: growth at 10 µM (%)

# structure smiles, assay readout, observed
rows = [
    ("O=C1/C(=C\\c2cccn2CCCCn2c3ccccc3c(=O)c3ccccc32)c2ccccc2N1c1c(Cl)cccc1Cl", "growth at 10 µM", 98.3),
    ("O=C1Nc2ccccc2/C1=C/c1cccn1CCCCCCn1c2ccccc2c(=O)c2ccccc21", "growth at 10 µM", 47.5),
    ("O=C1NC(=O)C(=Cc2cccn2CCCCCCn2c3ccccc3c(=O)c3ccccc32)C(=O)N1", "growth at 10 µM", 93),
    ("O=C1NC(=O)C(=Cc2cccn2CCCCCn2c3ccccc3c(=O)c3ccccc32)C(=O)N1", "growth at 10 µM", 102),
]
